Target: human calcitonin receptor (CTR) and RAMP3 (AMY3) (Homo sapiens, UniProt O60896+P30988)
Sequence (O60896 24-148): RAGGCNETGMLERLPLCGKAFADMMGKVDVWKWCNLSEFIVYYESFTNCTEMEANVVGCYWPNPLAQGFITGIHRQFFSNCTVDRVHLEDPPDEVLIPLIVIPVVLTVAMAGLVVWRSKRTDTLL
Sequence (P30988 25-474): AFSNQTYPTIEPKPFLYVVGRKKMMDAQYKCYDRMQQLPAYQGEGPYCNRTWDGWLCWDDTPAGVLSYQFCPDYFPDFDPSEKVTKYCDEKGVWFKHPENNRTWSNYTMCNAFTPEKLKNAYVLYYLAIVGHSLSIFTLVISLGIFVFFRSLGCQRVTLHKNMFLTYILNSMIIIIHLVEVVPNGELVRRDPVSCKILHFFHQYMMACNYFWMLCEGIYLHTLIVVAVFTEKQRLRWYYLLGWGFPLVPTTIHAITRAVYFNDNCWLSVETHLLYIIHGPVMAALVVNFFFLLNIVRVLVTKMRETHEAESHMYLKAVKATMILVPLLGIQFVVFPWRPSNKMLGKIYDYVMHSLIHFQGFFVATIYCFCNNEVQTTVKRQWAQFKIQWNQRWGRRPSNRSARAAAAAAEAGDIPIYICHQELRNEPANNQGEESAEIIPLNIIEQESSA
Experiment: Amylin Receptor cAMP Assay I
Type: cell-based
Conditions: COS-7/AMY3 cells, cAMP Hi-range Kit, read-out: Amylin Receptor cAMP Stimulation Activity: EC50
pEC50: −log10 of the molar value.
Value Kind: pEC50

1 = Cc1nnc(-c2c(CCC3CCCOC3)nc3c(c2-c2ccc(C(=O)NCc4ccc(F)c(F)c4)s2)C(=O)N2CCC[C@@H]32)o1 (stereo partly drawn) [Compound 61]
2 = Cc1nnc(-c2c(CCc3ccc(F)cc3)nc3c(c2-c2ccc(C(=O)NCc4ccc(F)c(F)c4)s2)S(=O)(=O)N[C@H]3C(C)C)o1 [Compound 18]
Exercise: Looking only at measured pEC50, which entry is lower, 1 or 2 ? Which one? Tell me its label.
Solution: 1
(1: 6.75, 2: 7.51)

---

Molecular target: human calcitonin receptor (CTR) and RAMP3 (AMY3) (Homo sapiens, UniProt O60896+P30988)
Test: Amylin Receptor cAMP Assay I
Assay type: cell-based
Details: COS-7/AMY3 cells, cAMP Hi-range Kit, read-out: Amylin Receptor cAMP Stimulation Activity: EC50
pEC50: −log10 of the molar value.
Value Kind: pEC50

Here's what some known entries look like.
Exercise: Tell me the measured pEC50 of `Cc1nnc(-c2c(CCc3ccc(F)cc3)nc3c(c2-c2ccc(C(=O)N[C@@H]4COc5ccccc54)s2)C(=O)N2CCC[C@@H]32)o1` , please.
Solution: 7.18

Exercise: Request the reported pEC50 associated with `COc1cccc2c1CC[C@H]2NC(=O)c1ccc(-c2c3c(nc(CCc4ccc(F)cc4)c2-c2nnc(C)o2)[C@@H]2CCCN2C3=O)s1`
Solution: 7.53

Exercise: # query: pEC50 of entry `Cc1nnc(-c2c(CCc3ccc(F)cc3)nc3c(c2-c2ccc(C(=O)NCc4ccc(F)c(F)c4)s2)C(=O)N2CC[C@H](O)[C@@H]32)o1`
Solution: 6.89

Exercise: Reported pEC50 for `Cc1nnc(-c2c(CCc3ccccc3)nc3c(c2-c2ccc(C(=O)NCc4ccc(F)c(F)c4)s2)C(=O)N2CCC[C@@H]32)o1` : what is it?
Solution: 7.17

1 = Cc1nnc(-c2c(CCc3ccc(F)cc3)nc3c(c2-c2ccc(C(=O)NCc4ccc(F)c(F)c4)s2)C(=O)N2CCC[C@@H]32)o1
2 = Cc1cnc(-c2c(CCc3ccc(F)cc3)nc3c(c2-c2cc4ccnc(NCc5ccc(F)c(F)c5)c4s2)C(=O)N2CCC[C@@H]32)o1
Exercise: Look at 1 and 2 . Which one has the lower recorded pEC50 number? Lab note: record the label of whichever item you select.
Solution: 1

---

Biological target: human calcitonin receptor (CTR) and RAMP3 (AMY3) (Homo sapiens, UniProt O60896+P30988)
Assay: Amylin Receptor cAMP Assay II
Assay type: cell-based
Conditions: COS-7/AMY3 cells, cAMP dynamic 2 kit, read-out: Amylin Receptor cAMP Stimulation Activity: EC50
Value Kind: EC50 (nM)

Solved cases below.
Exercise: EC50 lookup needed for `Cc1nnc(-c2c(CCC3CCOCC3)nc3c(c2-c2cc4ccnc(N[C@@H]5CCc6ncccc65)c4s2)C(=O)N2CCOC[C@@H]32)o1` , thanks.
Solution: 857

Exercise: Find the recorded EC50 belonging to `Cc1cnc(-c2c(CCC34CCC(CC3)OC4)nc3c(c2-c2ccc4c(c2)OCC(=O)N4Cc2ccc(F)cn2)c(=O)n2n3CCC2)o1` and report it.
Solution: 270

A = Cc1ccnc(-c2c(CCC3CCOCC3)nc3c(c2-c2cc4ccnc(N[C@@H]5CCc6ncccc65)c4s2)S(=O)(=O)CC3C(C)C)c1 (stereo partly drawn)
B = Cc1nnc(-c2c(CCC3CCOCC3)nc3c(c2-c2ccc4c(c2)oc(=O)n4Cc2ccc(C#N)c(F)c2)C(=O)N2CCOCC32O)o1 (stereo not drawn)
Exercise: Which value of EC50 is numerically greater: that of A or that of B ? Let me know the label of the one you choose.
Solution: A
(A: 449 nM, B: 166 nM)
